System: PPARg:RXRa DBDmut IVT, anti-RXR (DBD mutation: RXRa K156A/R161A, NR concentration 270 nM, RXRa partner concentration 90 nM)
assay_summary: PBM binding z-score (relative to random genomic background probes); higher = stronger binding; sequences stand for … in GC…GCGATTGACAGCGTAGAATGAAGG
sequences and their reported PBM binding z-score
# output: bare number, no unit

// field: PBM binding z-score; key: AGTCAAAGTTCTTCTAGGTAACGTAAGATATGCT ; value = 0.515

###

System: RARa:RXR (NR concentration 270 nM, RXRa partner concentration 90 nM)
assay_summary: PBM binding z-score (relative to random genomic background probes); higher = stronger binding; sequences stand for … in GC…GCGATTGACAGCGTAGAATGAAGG
metric: PBM binding z-score
# output: bare number, no unit

Observe how each entry below is paired with its result.
[
  {
    "seq_string": "CCATGTAGGTTAAGGGGGTCATTCAGTTTGAAAG",
    "target_system": "RARa:RXR (NR concentration 270 nM, RXRa partner concentration 90 nM)",
    "PBM binding z-score": 5.82
  },
  {
    "seq_string": "CGTCAACGTTCAACTAAGGTAACGTAAAGCACGC",
    "target_system": "RARa:RXR (NR concentration 270 nM, RXRa partner concentration 90 nM)",
    "PBM binding z-score": 2.07
  },
  {
    "seq_string": "CTTAGTTGGTCAAGGTCACACACGCTATAGGTAC",
    "target_system": "RARa:RXR (NR concentration 270 nM, RXRa partner concentration 90 nM)",
    "PBM binding z-score": 4.4
  },
  {
    "seq_string": "TCTCGGAGGACACGAAGGTCAGCGCTTTCCAGAG",
    "target_system": "RARa:RXR (NR concentration 270 nM, RXRa partner concentration 90 nM)",
    "PBM binding z-score": 3.06
  }
]

Turning now to a further record.
// field: PBM binding z-score; key: TCTAGCAGGCCATAGGGTCACTCAAGAGGTACGG ; value = 3.69

###

Tested on: LXRb homodimer (NR concentration 270 nM)
assay_summary: PBM binding z-score (relative to random genomic background probes); higher = stronger binding; sequences stand for … in GC…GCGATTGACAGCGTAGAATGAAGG
metric: PBM binding z-score
# output: bare number, no unit

Observe how each entry below is paired with its result.
[
  {
    "seq_string": "CGTCGAAGGTCAATGCTAGGTCAGTGAAAGCATT",
    "target_system": "LXRb homodimer (NR concentration 270 nM)",
    "PBM binding z-score": 0.906
  },
  {
    "seq_string": "GCTGCTAGGTCATGTTGGTCAGCTAACGGGTACG",
    "target_system": "LXRb homodimer (NR concentration 270 nM)",
    "PBM binding z-score": 0.329
  },
  {
    "seq_string": "ATCGAAAGGTCGTGAGGTGTGTATACAGAAAGGC",
    "target_system": "LXRb homodimer (NR concentration 270 nM)",
    "PBM binding z-score": 0.423
  }
]

Record for ATATGTAGGTTAGGGTAATTCAGAAAGTAGGGAA under target or system LXRb homodimer (NR concentration 270 nM): PBM binding z-score reported as 1.03

Record for ATATGTAGGTTAAGGTCATTCAGAAAGTAGGGAA under target or system LXRb homodimer (NR concentration 270 nM): PBM binding z-score reported as 1.75

Record for GCTAGTTTGTCAGTAAAAGGTCACACACCGGTCG under target or system LXRb homodimer (NR concentration 270 nM): PBM binding z-score reported as 1.2

###

Tested on: PPARg:RXRa 270nM:90nM, anti-RXR (NR concentration 270 nM, RXRa partner concentration 90 nM)
assay_summary: PBM binding z-score (relative to random genomic background probes); higher = stronger binding; sequences stand for … in GC…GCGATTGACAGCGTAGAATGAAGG
sequences and their reported PBM binding z-score
# output: bare number, no unit

[
  {
    "seq_string": "CCTTACGGGTCAGGAGGTTATAGCACGACGAGCG",
    "PBM binding z-score": 4.07
  },
  {
    "seq_string": "GGTACGAGGGCAAAGTTGATAGCATCTGTCGACG",
    "PBM binding z-score": 6.23
  },
  {
    "seq_string": "CGAACTAGGTTACCAGGACAGTGAAGAGGTTGGA",
    "PBM binding z-score": 3.65
  },
  {
    "seq_string": "AAATGTAGGTTAAGGGTCATTCAGGTTGGTTCGC",
    "PBM binding z-score": 9.63
  }
]

// field: PBM binding z-score; key: GATACAGGGTCATCTAGAGGCCAGAGTATGGAAA ; value = 5.65

// field: PBM binding z-score; key: CCTACTGGGCCAAAAAGGTAATTGATGCCGATAA ; value = 1.19

// field: PBM binding z-score; key: TAGCCTAGGTCATTGGACCAGTATAGTACGCATC ; value = 3.16

// field: PBM binding z-score; key: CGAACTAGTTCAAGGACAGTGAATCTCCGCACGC ; value = 0.0328

// field: PBM binding z-score; key: ATGTGTAGGTTAGGGTCATTCAGAAAGTAGGGAA ; value = 4.47

// field: PBM binding z-score; key: GCTATTAGGTGAAAGGGCAACCGAATGATTCTCG ; value = 8.6

// field: PBM binding z-score; key: TGTCAAAGTTCTAAGGTAACGTAAGTATCCACAC ; value = 1.41

// field: PBM binding z-score; key: CGTTCAAGGTCATAGGAGGTCAGTGAAGACAGAT ; value = 6.49

// field: PBM binding z-score; key: CTATGTAGGTTAAGTGGGTCATTCAGTTTGAAAG ; value = 5.61

// field: PBM binding z-score; key: CGTCCAAGGTCATAAGAGGTCAGTGAAGACAGAT ; value = 5.99

// field: PBM binding z-score; key: CGAACTAGGTCAACGACAGTGAATCTCCGCACGC ; value = 6.13

// field: PBM binding z-score; key: ATATGTAGGTTAGTGTCATTCAGAAAGTAGGGAA ; value = 3.57

// field: PBM binding z-score; key: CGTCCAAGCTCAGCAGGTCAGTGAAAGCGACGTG ; value = -0.756

// field: PBM binding z-score; key: CGTCCAAGGTAAGAGAGGTCAGTGAATGCCGAGT ; value = 1.2

// field: PBM binding z-score; key: ATATGTACGTTAGGGTCATTCAGAAAGTAGGGAA ; value = 2.97

// field: PBM binding z-score; key: ATCGAATGGTCGAGGTGAGTATAGAGAAAGGGAA ; value = -0.0117

###

Test system: RXRa DBDmut IVT, anti-RXR (DBD mutation: RXRa K156A/R161A, NR concentration 90 nM)
assay_summary: PBM binding z-score (relative to random genomic background probes); higher = stronger binding; sequences stand for … in GC…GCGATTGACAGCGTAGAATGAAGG
Please use true whenever PBM binding z-score is not below 0.4, and false whenever it is.

[
  {
    "seq_string": "CCTACTGGGCCAAAGGCCATTGATTCCAATGCTC",
    "class_label": "false"
  },
  {
    "seq_string": "CATACAGGGTCATCTAGGCCAGAGTAGGGACGGC",
    "class_label": "true"
  },
  {
    "seq_string": "CGAACTAGGTCAAATGACAGTGAAAGGCGACGTA",
    "class_label": "true"
  },
  {
    "seq_string": "ATACGTAGGTTACATCCGGGTCATTCAGGCTATG",
    "class_label": "false"
  },
  {
    "seq_string": "CATACAGGGACAGCTAGGCCAGAGTAGGGACGGC",
    "class_label": "false"
  }
]

Ask | API: above_or_equal(metric=PBM binding z-score, cutoff=0.4) for item CCAGAAAGGTGAAAGGTAACTCAGTCTGGTACGC
Reply | false

Ask | API: above_or_equal(metric=PBM binding z-score, cutoff=0.4) for item GATACAGGGGCAAGGCCAGAGTACGCGTATTGAT
Reply | false

###

Test system: THRa homodimer (NR concentration 90 nM)
assay_summary: PBM binding z-score (relative to random genomic background probes); higher = stronger binding; sequences stand for … in GC…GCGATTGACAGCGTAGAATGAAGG
metric: PBM binding z-score
# output: bare number, no unit

Observe how each entry below is paired with its result.
[
  {
    "seq_string": "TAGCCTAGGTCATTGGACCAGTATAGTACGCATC",
    "PBM binding z-score": 0.854
  },
  {
    "seq_string": "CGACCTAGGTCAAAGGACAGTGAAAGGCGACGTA",
    "PBM binding z-score": 0.639
  },
  {
    "seq_string": "ATATGAAGGTTATCGGGTCATTCAGTTTGCGCAT",
    "PBM binding z-score": 2.69
  },
  {
    "seq_string": "TTACCAAGGTGAAAGGTCATTGATGCACGCCTTG",
    "PBM binding z-score": 1.64
  },
  {
    "seq_string": "TGAATGAGGTTTAAGATCAGGGAACGTGGCGTCG",
    "PBM binding z-score": -0.624
  }
]

// field: PBM binding z-score; key: ACTAGTTGTTCAGCTGAGGTCACACACAATTCGG ; value = 5.2

// field: PBM binding z-score; key: CCGAGTAGGTTACGAGGGGGCAGTCAGTGCGAAT ; value = 0.478

// field: PBM binding z-score; key: CTATGGAGGTTAAGGGGGTCATTCAGTTTGAAAG ; value = 2.95

// field: PBM binding z-score; key: CTAACTAGGTCACCGGAAGGTCAAAGTCCGCATG ; value = 2.98

// field: PBM binding z-score; key: CCTCGGAGGACACCAGGAGGTCAGAGCTGCCAGA ; value = 1.37

// field: PBM binding z-score; key: CGGACTAGGTCAAAGGACAGTGAAAGGCGACGTA ; value = 0.589

// field: PBM binding z-score; key: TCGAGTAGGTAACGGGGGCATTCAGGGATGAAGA ; value = 1.33

// field: PBM binding z-score; key: TCTGCTAGGTCAGGTGGTCAGCTAACGAGCTGCC ; value = 0.331

// field: PBM binding z-score; key: CGTCCAACGTCAAGGTCAGTGAAAGAGACTCGAA ; value = 1.67

// field: PBM binding z-score; key: CCTTACGGGTCACGGTTATAGCACGGGTGGTACG ; value = 0.418

// field: PBM binding z-score; key: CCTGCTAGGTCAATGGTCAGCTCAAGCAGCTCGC ; value = 0.708

// field: PBM binding z-score; key: CGAACTAGGTCAAAGGACAGTGAGAGGCGACGTA ; value = 0.63

// field: PBM binding z-score; key: AGAATGAGGTTACCAAAGATCAGTGAAACGCTTG ; value = 0.639

// field: PBM binding z-score; key: TCGAGTAGTTTACGGGGGCATTCAGGGATGAAGA ; value = 1.05

// field: PBM binding z-score; key: ATCGAAAGGTCGTGACGTGAGTATACAGAAAGGC ; value = -0.269

// field: PBM binding z-score; key: CAAACTAGGTCAAGGTCAAATTCGGTTTGTGCCA ; value = 3.92

// field: PBM binding z-score; key: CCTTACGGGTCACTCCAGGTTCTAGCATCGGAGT ; value = 0.0825

// field: PBM binding z-score; key: TCGAGAAGGTTACGGGGGCATTCAGGGATGAAGA ; value = 1.42

// field: PBM binding z-score; key: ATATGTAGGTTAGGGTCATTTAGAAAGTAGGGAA ; value = 3.22

// field: PBM binding z-score; key: ATATGTAGGATAGGGTCATTCAGAAAGTAGGGAA ; value = 2.24

// field: PBM binding z-score; key: CGAACTAGGTCACCAGGACAGTGGAGAGGTTGGA ; value = 1.78

// field: PBM binding z-score; key: CCGAGTAGGTTACGAGGGGGCTTTCAGTGCGAAT ; value = 0.299

// field: PBM binding z-score; key: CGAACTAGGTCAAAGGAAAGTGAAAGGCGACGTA ; value = 0.083
